Listed below: percentage damage caused to the plant, five point scale, ZEAMX values for each entry.
- Test system: Zea Mays (ZEAMX)
- method-summary: B4 Pre-Emergence Efficacy Test 2
- Type: in vivo
- protocol-conditions: 250 g/ha, after 13 days

Observe how each entry below is paired with its result.
{"smiles-text": "Cc1nn(C)c(=O)c(-c2c(F)ccc(Cl)c2CCc2ccc3c(c2)OC(F)(F)O3)c1O", "val": "1 (1=0-19%)"}
{"smiles-text": "Cc1nn(C)c(=O)c(-c2c(F)ccc(Cl)c2CCc2ccc3ccsc3c2)c1O", "val": "3 (3=40-59%)"}
{"smiles-text": "Cc1nn(C)c(=O)c(-c2c(F)ccc(Cl)c2CCc2cnc3c(ccn3C)c2)c1O", "val": "1 (1=0-19%)"}

Continue with the next compound.
Query: Entry under review: Cc1nc2ccc(CCc3c(Cl)ccc(F)c3-c3c(O)c(C)nn(C)c3=O)cc2o1 . Reported percentage damage caused to the plant, five point scale, ZEAMX?
Reply: 4 (4=60-79%)

# credit: patent US12540128B2
